For each entry below, report its IC50 value.
tested on: Clostridium difficile clinical isolate growth, OD600, 24 h; assay: growth modulation of Clostridium difficile isolate – OD600, 9-point, retest, dose response (AID 1224920);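 further: inhibitors lower culture turbidity so OD600 falls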

Recorded IC50, per entry:
compound=CCCNC(=O)C[C@H]1CC[C@@H]2[C@H](COC[C@@H](O)CN2C(=O)Nc2ccc(Cl)c(Cl)c2)O1 system="Clostridium difficile clinical isolate growth, OD600, 24 h" result="20.9 µM"
compound=COc1ccccc1CN1CC[C@@H]2[C@H](CO)Nc3ccc(C#Cc4ccccc4)cc3[C@@H]21 system="Clostridium difficile clinical isolate growth, OD600, 24 h" result="31.2 µM"

Give me IC50 for each of these compounds, listed below.
1. O=C(C[C@@H]1CC[C@@H]2[C@H](COC[C@H](O)CN2C(=O)Nc2ccc(C(F)(F)F)cc2)O1)NCC1CCCCC1
2. O=C(C[C@@H]1CC[C@H]2[C@@H](COC[C@@H](O)CN2C(=O)Nc2cc(Cl)cc(Cl)c2)O1)N1CCOCC1
3. O=C(Nc1ccc(F)cc1)N1[C@@H]2CNC[C@H]1C2c1ccc(-c2ccccc2)cc1 (stereo partly drawn)
4. OC[C@H]1[C@H](c2ccc(C#CC3CCCC3)cc2)[C@@H]2CN(CCC(F)(F)F)CCCCN12

Reply:
7.67 µM
17.3 µM
83.6 µM
35 µM

Give me IC50 for each of these compounds, listed below.
1. O=C(Nc1ccccc1F)N1C[C@@H]2N[C@H](C1)C2c1ccc(/C=C/c2ccccc2)cc1 (stereo partly drawn)
2. FC(F)(F)c1cccc(CN2[C@@H]3CNC[C@H]2[C@@H]3c2ccc(-c3cccnc3)cc2)c1
3. O=C(Nc1ccccc1)N1CCCCN2[C@H](CO)[C@H](c3ccc(C#Cc4ccccc4)cc3)[C@H]2C1
4. O=C(NC[C@H]1N[C@H](CO)[C@@H]1c1ccc(C2=CCCCC2)cc1)c1ccc(F)cc1
5. Cc1ccc(-c2ccc(C3[C@H]4CNC[C@@H]3N4S(=O)(=O)c3cccc(C)c3)cc2)cc1 (stereo partly drawn)
6. O=C(c1cccc(F)c1)N1CC[C@H]2[C@H](CO)Nc3ccc(-c4cccc(F)c4)cc3[C@H]21
7. COc1cc(CN2[C@@H]3CNC[C@H]2C3c2ccc(-c3ccc(C#N)cc3)cc2)cc(OC)c1 (stereo partly drawn)

Reply:
12.5 µM
103 µM
9.4 µM
29.1 µM
30.3 µM
124 µM
48.1 µM

* * *

tested on: Clostridium difficile clinical isolate growth, OD600, 24 h; experiment: growth modulation of Clostridium difficile isolate – OD600, 9-point, retest, dose response (AID 1224920);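 further: inhibitors lower culture turbidity so OD600 falls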
Calls of active or inactive are those of the source.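 The calls were made as follows: active = IC50 no higher than ten times the top tested dose; inconclusive = flat fit with 30 to 70% inhibition, or poor fit; inactive = IC50 above ten times the top dose.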
Respond using exactly one of the listed classes: T = active, F = inactive

Before answering, review these 6 worked examples.
molecule="O=S(=O)(c1ccccc1)N1C[C@@H]2N[C@H](C1)C2c1ccc(/C=C/c2ccccc2)cc1 (stereo not given in full)" group_label=T
molecule=COc1ccc(NC(=O)N2CCCCN3[C@H](CO)[C@H](c4ccc(C#Cc5ccccc5)cc4)[C@H]3C2)cc1 group_label=T
molecule="O=C(Nc1ccc(Cl)cc1)N1[C@@H]2CNC[C@H]1C2c1ccc(-c2ccccc2)cc1 (stereo not given in full)" group_label=T
molecule=CCNC(=O)C[C@@H]1CC[C@H]2[C@@H](COC[C@@H](O)CN2C(=O)Nc2ccc(C(F)(F)F)cc2)O1 group_label=T
molecule=Cc1cccc(-c2ccc([C@H]3[C@@H](CO)N4CCCCN(CCC(F)(F)F)C[C@@H]34)cc2)c1 group_label=T
molecule="O=C(Nc1ccc2c(c1)OCO2)N1C[C@@H]2N[C@H](C1)C2c1ccc(C=Cc2ccccc2)cc1 (stereo not given in full)" group_label=T

Task item: Hey, what did the test say about Cc1ccc(S(=O)(=O)N2[C@@H]3CNC[C@H]2C3c2ccc(-c3cccc(F)c3)cc2)cc1 (stereo not given in full) ?
Reply: T

Task item: Hey, what did the test say about `C[C@@H]1CN([C@@H](C)CO)C(=O)c2ccccc2-c2ccccc2CO[C@H]1CN(C)Cc1ccccc1C(F)(F)F` ?
Reply: F

Task item: Hey, what did the test say about `Cc1ccc(-c2ccc([C@H]3[C@@H](CO)N4CCCCN(C(=O)c5ccc(F)cc5)C[C@H]34)cc2)cc1` ?
Reply: T

Task item: Hey, what did the test say about `CCNC(=O)C[C@@H]1CC[C@@H]2[C@H](COC[C@H](O)CN2C(=O)Nc2ccc(C(F)(F)F)cc2)O1` ?
Reply: T

Task item: Hey, what did the test say about C/C=C/c1ccc(C2[C@H]3CNC[C@@H]2N3C(=O)Nc2ccc(C(F)(F)F)cc2)cc1 (stereo not given in full) ?
Reply: T

Task item: Hey, what did the test say about Cc1ccc(-c2ccc(C3[C@@H]4CN(S(=O)(=O)c5cccc(C)c5)C[C@H]3N4)cc2)cc1 (stereo not given in full) ?
Reply: T

Task item: Hey, what did the test say about `OC[C@H]1Nc2ccc(-c3ccc(F)cc3)cc2[C@@H]2[C@H]1CCN2Cc1ccc(F)cc1` ?
Reply: T

Task item: Hey, what did the test say about `O=C(C[C@@H]1CC[C@@H]2[C@H](COC[C@@H](O)CN2C(=O)Nc2ccc(Cl)c(Cl)c2)O1)NC1CCC1` ?
Reply: T

Task item: Hey, what did the test say about `OC[C@@H]1[C@H](c2ccc(C3=CCCCC3)cc2)[C@@H]2CN(CCC(F)(F)F)CCCCN12` ?
Reply: T

Task item: Hey, what did the test say about `Cc1ccccc1-c1ccc([C@@H]2[C@H](CO)N3CCCCN(C(=O)Nc4cccc(F)c4)C[C@@H]23)cc1` ?
Reply: T

Task item: Hey, what did the test say about Fc1ccc(-c2ccc(C3[C@@H]4CN(Cc5nccs5)C[C@H]3N4)cc2)cc1 (stereo not given in full) ?
Reply: T

Task item: Hey, what did the test say about `O=C(C1CCCCC1)N1CC2(C1)[C@H](c1ccccc1)[C@H](CO)N2Cc1ccc(Cl)cc1` ?
Reply: T

Task item: Hey, what did the test say about `OC[C@@H]1Nc2ccc(-c3ccc(F)cc3)cc2[C@H]2[C@@H]1CCN2Cc1ccc(F)cc1` ?
Reply: T

Task item: Hey, what did the test say about O=S(=O)(c1ccc(F)cc1)N1C[C@@H]2N[C@H](C1)C2c1ccc(/C=C/c2ccccc2)cc1 (stereo not given in full) ?
Reply: T

Task item: Hey, what did the test say about Cc1cccc(-c2ccc(C3[C@@H]4CN(Cc5ccccc5)C[C@H]3N4)cc2)c1 (stereo not given in full) ?
Reply: T

Task item: Hey, what did the test say about `OC[C@@H]1[C@H](c2ccc(C#CC3CCCC3)cc2)[C@H]2CN(CCC(F)(F)F)CCCCN12` ?
Reply: T

Task item: Hey, what did the test say about `O=C(C[C@H]1CC[C@H]2[C@@H](COC[C@@H](O)CN2C(=O)Nc2ccc(C(F)(F)F)cc2)O1)NCC1CCCCC1` ?
Reply: T

Task item: Hey, what did the test say about `OC[C@H]1[C@@H](c2ccc(C#CC3CCCC3)cc2)[C@@H]2CN(CCC(F)(F)F)CCCCN12` ?
Reply: T

Task item: Hey, what did the test say about COc1cccc(-c2ccc(C3[C@@H]4CN(S(=O)(=O)c5cccc(OC)c5)C[C@H]3N4)cc2)c1 (stereo not given in full) ?
Reply: T
